Assignment: determine reported pIC50 for the given molecules.
- MEASURED ON: USP7 (Homo sapiens (Human))
- Sequence (Q93009 208-1102): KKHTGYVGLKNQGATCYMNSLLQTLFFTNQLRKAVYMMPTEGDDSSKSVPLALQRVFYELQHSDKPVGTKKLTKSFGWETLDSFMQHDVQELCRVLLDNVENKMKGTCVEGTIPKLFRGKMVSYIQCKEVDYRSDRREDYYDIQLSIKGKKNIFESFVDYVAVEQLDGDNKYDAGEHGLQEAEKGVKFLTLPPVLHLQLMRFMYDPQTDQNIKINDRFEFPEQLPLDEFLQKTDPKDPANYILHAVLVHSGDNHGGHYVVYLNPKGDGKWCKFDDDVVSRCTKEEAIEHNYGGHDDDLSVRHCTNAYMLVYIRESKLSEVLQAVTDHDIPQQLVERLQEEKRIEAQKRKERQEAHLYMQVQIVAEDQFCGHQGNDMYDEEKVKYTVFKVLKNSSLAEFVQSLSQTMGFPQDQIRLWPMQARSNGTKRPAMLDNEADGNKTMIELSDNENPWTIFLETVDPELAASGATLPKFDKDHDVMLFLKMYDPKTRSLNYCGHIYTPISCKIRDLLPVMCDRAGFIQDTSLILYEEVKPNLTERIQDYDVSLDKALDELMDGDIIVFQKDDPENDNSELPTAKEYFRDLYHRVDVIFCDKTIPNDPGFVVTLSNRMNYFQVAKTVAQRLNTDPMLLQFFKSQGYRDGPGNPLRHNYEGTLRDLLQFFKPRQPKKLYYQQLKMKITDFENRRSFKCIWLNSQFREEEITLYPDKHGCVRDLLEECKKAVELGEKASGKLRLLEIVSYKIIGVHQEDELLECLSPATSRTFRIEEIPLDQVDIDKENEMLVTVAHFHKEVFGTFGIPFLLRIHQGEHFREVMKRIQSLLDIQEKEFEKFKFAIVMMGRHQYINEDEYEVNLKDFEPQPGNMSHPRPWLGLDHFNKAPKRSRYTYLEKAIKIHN
- EXPERIMENT SUMMARY: USP7 Assay B (Ubitquin-Rhodamine110 Assay)
- Assay type: biochemical
- EXPERIMENTAL PARAMETERS: Ub-Rh110 substrate 25 nM
pIC50: −log10 of the molar value.

Worked examples, 5 molecules total:
mol_smiles=O=C(Cc1c(Cl)cccc1Cl)Nc1cc2c(=O)n(CC3(O)CCN(C(=O)C4CC4)CC3)cnn2c1 test_readout=pIC50 reported_value="< 5.00"
mol_smiles=Cc1nnnn1Cc1ccc(C(=O)N2CCC(O)(Cn3cnn4cccc4c3=O)CC2)cc1 test_readout=pIC50 reported_value="< 5.00"
mol_smiles=Cn1cnc2cc(-c3ccc(C(=O)N4CCC(O)(Cn5cnn6cccc6c5=O)CC4)cc3)ccc21 test_readout=pIC50 reported_value="< 5.00"
mol_smiles=NC(=O)c1ccc(-c2cccc(C(=O)N3CCC(O)(Cn4cnn5cccc5c4=O)CC3)c2)cc1 test_readout=pIC50 reported_value="5.00 to 6.00"
mol_smiles=N#Cc1ccc(NC(=O)Nc2cc3c(=O)n(CC4(O)CCN(C(=O)C5CC5)CC4)cnn3c2)cc1 test_readout=pIC50 reported_value="< 5.00"

Would you mind giving pIC50 for every molecule in the list below?
1. O=C(c1ccc(Sc2ccccc2)cc1)N1CCC(O)(Cn2cnn3cccc3c2=O)CC1
2. O=C(c1ccccc1-c1cccc(F)c1)N1CCC(O)(Cn2cnn3cccc3c2=O)CC1

1: 5.00 to 6.00; 2: < 5.00

Would you mind giving pIC50 for every molecule in the list below?
1. N#Cc1ccc(N2CCN(C(=O)N3CCC(O)(Cn4cnn5cccc5c4=O)CC3)CC2)cc1
2. CNC(=O)Nc1cc2c(=O)n(CC3(O)CCN(C(=O)C[C@@H](C)c4ccccc4)CC3)cnn2c1
3. O=C(c1ccc(-c2ccc(C(=O)N3CCC(O)(Cn4cnn5cccc5c4=O)CC3)c(Cl)c2)cc1)N1CCCC1
4. CCNC(=O)c1ccc(-c2ccc(C(=O)N3CCC(O)(Cn4cnn5cccc5c4=O)CC3)cc2)cc1

< 5.00
6.00 to 6.70
5.00 to 6.00
< 5.00
